- experimental_system: SMARCA2 (Homo sapiens, UniProt P51531)
- Sequence (P51531 whole entry): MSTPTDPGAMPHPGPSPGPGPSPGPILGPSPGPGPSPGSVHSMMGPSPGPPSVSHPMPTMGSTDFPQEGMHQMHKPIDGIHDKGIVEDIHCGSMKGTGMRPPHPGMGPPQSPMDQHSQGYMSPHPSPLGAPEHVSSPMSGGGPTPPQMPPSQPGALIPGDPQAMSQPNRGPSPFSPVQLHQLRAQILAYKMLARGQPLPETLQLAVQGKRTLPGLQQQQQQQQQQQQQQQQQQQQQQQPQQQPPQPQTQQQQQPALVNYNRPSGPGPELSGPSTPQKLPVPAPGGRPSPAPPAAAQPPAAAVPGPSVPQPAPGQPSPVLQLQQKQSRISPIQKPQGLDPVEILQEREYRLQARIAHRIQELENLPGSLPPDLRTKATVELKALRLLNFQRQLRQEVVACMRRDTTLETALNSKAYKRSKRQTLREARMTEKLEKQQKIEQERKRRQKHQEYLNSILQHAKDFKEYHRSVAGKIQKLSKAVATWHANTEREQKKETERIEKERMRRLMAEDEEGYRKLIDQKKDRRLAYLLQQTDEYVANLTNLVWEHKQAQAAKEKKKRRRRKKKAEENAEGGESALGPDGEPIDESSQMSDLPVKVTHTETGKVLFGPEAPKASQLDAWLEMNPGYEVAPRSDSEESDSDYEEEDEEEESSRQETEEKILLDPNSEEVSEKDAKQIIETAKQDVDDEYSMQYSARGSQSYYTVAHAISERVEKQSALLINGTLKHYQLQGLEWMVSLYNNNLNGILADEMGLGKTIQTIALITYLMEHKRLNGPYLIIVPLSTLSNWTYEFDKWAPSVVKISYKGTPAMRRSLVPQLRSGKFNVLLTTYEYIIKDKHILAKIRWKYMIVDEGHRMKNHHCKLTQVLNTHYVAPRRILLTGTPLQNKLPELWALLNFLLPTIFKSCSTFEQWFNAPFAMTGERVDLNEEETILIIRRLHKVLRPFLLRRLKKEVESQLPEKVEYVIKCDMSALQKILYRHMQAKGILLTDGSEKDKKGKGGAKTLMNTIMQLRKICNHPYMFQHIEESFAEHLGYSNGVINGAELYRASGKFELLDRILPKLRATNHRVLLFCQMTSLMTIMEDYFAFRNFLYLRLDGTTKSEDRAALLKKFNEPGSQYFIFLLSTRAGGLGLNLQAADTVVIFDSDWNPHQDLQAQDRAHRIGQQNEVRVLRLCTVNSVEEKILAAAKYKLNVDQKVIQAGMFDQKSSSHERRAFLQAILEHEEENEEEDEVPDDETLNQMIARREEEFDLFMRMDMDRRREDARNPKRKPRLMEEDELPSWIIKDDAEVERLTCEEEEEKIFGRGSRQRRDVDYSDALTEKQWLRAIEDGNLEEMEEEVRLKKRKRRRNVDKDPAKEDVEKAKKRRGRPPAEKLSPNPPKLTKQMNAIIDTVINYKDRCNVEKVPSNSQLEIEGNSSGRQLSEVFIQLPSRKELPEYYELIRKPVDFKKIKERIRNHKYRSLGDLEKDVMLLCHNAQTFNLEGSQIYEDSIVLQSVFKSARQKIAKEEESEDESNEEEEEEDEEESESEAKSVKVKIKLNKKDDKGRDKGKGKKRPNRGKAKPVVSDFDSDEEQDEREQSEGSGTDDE
- assay_text: SMARCA2 Western blot MV4-11 degradation
- Format: cell-based
- Parameters: SMARCA2 and SMARCA4 protein degradation in MV4-11 cells; endogenous in cells; host or cells: MV4-11
- test_conditions: MV4-11, MV4-11 cells, 24 h; read-out: SMARCA2 MSD MV411 degradation 24 h: average Dmax %
Provide the reported Dmax of each item.

Please supply the value of reported Dmax for the item Cc1ncsc1-c1ccc(CNC(=O)[C@@H]2C[C@@H](O)CN2C(=O)C(c2cc(O[C@H]3CC[C@@H](N4CCC(c5cnc(N6C7CCC6CN(c6cc(-c8ccccc8O)nnc6N)C7)nc5)CC4)CC3)no2)C(C)C)cc1 (stereo partly drawn) [I-18] > 90%

Please supply the value of reported Dmax for the item Cc1nccn1-c1ccc(CNC(=O)[C@@H]2C[C@@H](O)CN2C(=O)[C@@H](NC(=O)[C@H]2CC3(C2)C[C@H](N2CCC(c4cnc(N5C6CCC5CN(c5cc(-c7ccccc7O)nnc5N)C6)nc4)CC2)C3)C(C)(C)C)cc1 (stereo partly drawn) [I-33] < 50%

Please supply the value of reported Dmax for the item Cc1cc(C(C(=O)N2C[C@H](O)C[C@H]2C(=O)NCc2ccc(-c3scnc3C)cc2)C(C)CCN2CCC(c3cnc(N4C5CCC4CN(c4cc(-c6ccccc6O)nnc4N)C5)nc3)CC2)on1 (stereo partly drawn) [I-44] 70 to 90%

Please supply the value of reported Dmax for the item Cc1ncsc1-c1ccc(CNC(=O)[C@@H]2C[C@@H](O)CN2C(=O)[C@@H](NC(=O)N2CC3(CC(N4CCC(c5cnc(N6C7CCC6CN(c6cc(-c8ccccc8O)nnc6N)C7)nc5)CC4)C3)C2)C(C)(C)C)cc1 [I-58] > 90%

Please supply the value of reported Dmax for the item Cc1ncsc1-c1ccc(CNC(=O)[C@@H]2C[C@@H](O)CN2C(=O)[C@@H](NC(=O)C2CC3(C2)CC(N2CCC(Oc4cc(N5C6CCC5CN(c5cc(-c7ccccc7O)nnc5N)C6)ccn4)CC2)C3)C(C)(C)C)cc1 (stereo partly drawn) [I-38] < 50%

Please supply the value of reported Dmax for the item Cc1ncsc1-c1ccc([C@H](C)NC(=O)[C@@H]2C[C@@H](O)CN2C(=O)[C@@H](NC(=O)[C@H]2CC3(C2)C[C@H](N2CCC(c4ccc(N5C6CCC5CN(c5cc(-c7ccccc7O)nnc5N)C6)cc4)CC2)C3)C(C)(C)C)cn1 (single isomer, unassigned) [I-5] < 50%

Please supply the value of reported Dmax for the item Cc1ncsc1-c1ccc(CNC(=O)[C@@H]2C[C@@H](O)CN2C(=O)[C@@H](NC(=O)[C@H]2CC3(C2)C[C@H](N2CC4(CN(c5cnc(N6C7CCC6CN(c6cc(-c8ccccc8O)nnc6N)C7)nc5)C4)C2)C3)C(C)(C)C)cc1 (stereo partly drawn) [I-11] 70 to 90%

Please supply the value of reported Dmax for the item Cc1cc(C(C(=O)N2C[C@H](O)C[C@H]2C(=O)NCc2ccc(-c3scnc3C)cc2)C(C)CCN2CCC(c3cnc(N4C5CCC4CN(c4cc(-c6ccccc6O)nnc4N)C5)nc3)CC2)on1 (single isomer, unassigned) [I-45] > 90%

Please supply the value of reported Dmax for the item Cc1ncsc1-c1ccc(CNC(=O)[C@@H]2C[C@H](O)CN2C(=O)[C@@H](NC(=O)[C@H]2CC3(C2)C[C@H](N2CCC(c4cnc(N5C6CCC5CN(c5cc(-c7ccccc7O)nnc5N)C6)nc4)CC2)C3)C(C)(C)C)cc1 (stereo partly drawn) [I-79] < 50%
